system: XIP peptide (Xip251-270) binding; assay: small-molecule binders of XIP peptide, primary screen, biochemical, small-molecule microarray, fluorescence 635/667 nm, 0.1 µg/mL protein (AID 1182); conditions: fluorescent protein binding, 635 nm, higher = more signal, called active from +8 up or from −8 down
MEASURED PARAMETER: composite z-score
# answer = number (no unit)

INSERT INTO results (molecule, tgt, quantitative_readout) VALUES
  ('O=C(NCc1ccccc1)[C@@H]1c2ccccc2C(=O)N(CC23CC4CC(CC(C4)C2)C3)[C@H]1c1ccc(CO)cc1', 'XIP peptide (Xip251-270) binding', 0.149),
  ('CCOC(=O)[C@H]1CC=C2CC1C(=O)N1CCC[C@@H]1[C@@H]2O[Si](C)(C)C(C)(C)C (some centres undefined)', 'XIP peptide (Xip251-270) binding', -0.473),
  ('C[C@@H]1ON(c2cccc(C(=O)OC(C)(C)C)c2)[C@H](c2ccc(Br)cc2)[C@H]1C(=O)N1C(=O)OC[C@H]1Cc1ccccc1', 'XIP peptide (Xip251-270) binding', 0.543);

Note: attention shifts to another entry.
QUERY: Return composite z-score (reported value) for this molecule: CC(C)(C)OC(=O)CC[C@]12N=C(c3ccc(OCCCO)cc3)O[C@H]1c1ccccc1N(CCS(=O)(=O)c1ccccc1)C2=O
RESULT: 1.11

Origin of the recorded values: PubChem BioAssay
